test: Rat in vivo pharmacokinetics study after oral administration of product A, B or C; set-up: species or system Male Sprague-Dawley (SD) rats; concentration or dose not given beside the values; conditions: rats, oral; product C versus product A or B
endpoint_name: AUC 0→t in product C group, increased to % compared to that in product A or B groups (%)

# molecule, units_text, meas_value
data = [
    ("C[C@@H]1O[C@@H](OC[C@H]2O[C@@H](OCCc3ccc(O)c(O)c3)[C@H](O)[C@@H](O)[C@@H]2OC(=O)/C=C/c2ccc(O)c(O)c2)[C@H](O)[C@H](O)[C@H]1O [Forsythoside A]", "%", 230),
    ("O=C(C=Cc1ccc(O)c(O)c1)OC1CC(O)(C(=O)O)CC(O)C1OC(=O)C=Cc1ccc(O)c(O)c1 (stereo not drawn)", "%", 318),
    ("COc1cc(C2OCC3C(c4ccc(O[C@@H]5O[C@H](CO)[C@@H](O)[C@H](O)[C@H]5O)c(OC)c4)OCC23)ccc1O (stereo partly drawn) [Pinoresinol-β-D-glucoside]", "%", 299),
]

----------
assay: Rat in vivo pharmacokinetics study after oral administration of product A, B or C; set-up: species or system Male Sprague-Dawley (SD) rats; conditions: male, Sprague-Dawley, rat, plasma, po, 10 mL·kg^−1, rats, oral product A, 10 mL·kg^−1; read-out: T 1/2z
endpoint_name: half-life (h)

Solved cases (4 shown):
# compound, half-life / h
records = [
    ("COC(=O)C1=CO[C@@H](O[C@@H]2O[C@H](CO)[C@@H](O)[C@H](O)[C@H]2O)[C@@H]2[C@@H](C)[C@@H](O)C[C@H]12 [Loganin]", 2.07),
    ("O=C(/C=C/c1ccc(O)c(O)c1)O[C@H]1[C@H](O)C[C@](O)(C(=O)O)C[C@H]1O [Cryptochlorogenic acid]", 1.73),
    ("O=C(C=Cc1ccc(O)c(O)c1)OC1CC(O)(C(=O)O)CC(O)C1OC(=O)C=Cc1ccc(O)c(O)c1 (stereo not drawn) [3,4-dicaffeoylquinic acid]", 4.92),
    ("O=c1cc(-c2ccc(O)c(O)c2)oc2cc(O[C@@H]3O[C@H](CO)[C@@H](O)[C@H](O)[C@H]3O)cc(O)c12 [Luteoloside]", 6.38),
]

A = O=C(/C=C/c1ccc(O)c(O)c1)O[C@@H]1C[C@](O)(C(=O)O)C[C@@H](OC(=O)/C=C/c2ccc(O)c(O)c2)[C@H]1O [3,5-dicaffeoylquinic acid]
B = O=c1c(-c2ccc(O)cc2)coc2cc(O[C@@H]3O[C@H](CO)[C@@H](O)[C@H](O)[C@H]3O)cc(O)c12 [Genistin]
Higher half-life: A or B ? Answer by quoting the chosen item's label.
B
(B: 8.03 h, A: 4.87 h)

----------
Test: Rat in vivo pharmacokinetics study after oral administration of product A, B or C
Parameters: species or system Male Sprague-Dawley (SD) rats
Conditions: male, Sprague-Dawley, rat, plasma, po, 10 mL·kg^−1, rats, oral product A, 10 mL·kg^−1
Protocol: Product A (extract mixed with FLJ extract and water, (1∶1, v / v )), product B (extract mixed with FF extract and water, (1∶1, v / v )) and product C (extract mixed with FLJ and FF extracts, (1∶1, v / v )) were given to oral administration to rats, respectively. Male SD rats (∼250 g) were kept in an environmentally controlled breeding room (temperature: 20±2°C, relative humidity: 60±5%) for 1 week. […]
endpoint_name: Tmax (min)

# molecule, endpoint_name, meas_value
data = [
    ("O=c1c(-c2ccc(O)cc2)coc2cc(O[C@@H]3O[C@H](CO)[C@@H](O)[C@H](O)[C@H]3O)cc(O)c12", "Tmax", 16),
    ("O=c1c(-c2ccc(O)cc2)coc2cc(O)cc(O)c12", "Tmax", 14),
    ("O=c1cc(-c2ccc(O)c(O)c2)oc2cc(O[C@@H]3O[C@H](CO)[C@@H](O)[C@H](O)[C@H]3O)cc(O)c12 [Luteoloside]", "Tmax", 10),
]

a = O=C(/C=C/c1ccc(O)c(O)c1)O[C@H]1[C@H](O)C[C@](O)(C(=O)O)C[C@H]1O
b = O=C(C=Cc1ccc(O)c(O)c1)OC1CC(O)(C(=O)O)CC(O)C1OC(=O)C=Cc1ccc(O)c(O)c1 (centres unmarked)
Param metric = Tmax; output whichever of a , b has the minimum value. Pick one and reply with its label.
a

----------
experiment: Rat in vivo pharmacokinetics study after oral administration of product A, B or C; set-up: species or system Male Sprague-Dawley (SD) rats; settings: male, Sprague-Dawley, rat, plasma, 10 mL·kg^−1; rats, oral product C group
endpoint_name: AUC(0-t) (ng·h/mL)

# annotated cases, reported AUC(0-t) shown
# compound, AUC(0-t) / ng·h/mL
records = [
    ("O=C(/C=C/c1ccc(O)c(O)c1)O[C@@H]1C[C@](O)(C(=O)O)C[C@@H](O)[C@H]1O [Chlorogenic acid]", 1270),
    ("O=C(/C=C/c1ccc(O)c(O)c1)O[C@@H]1C[C@@](O)(C(=O)O)C[C@@H](O)[C@@H]1O [Neochlorogenic acid]", 259),
    ("O=C(/C=C/c1ccc(O)c(O)c1)O[C@@H]1C[C@](O)(C(=O)O)C[C@@H](OC(=O)/C=C/c2ccc(O)c(O)c2)[C@H]1O [3,5-dicaffeoylquinic acid]", 82.4),
    ("C[C@@H]1O[C@@H](OC[C@H]2O[C@@H](OCCc3ccc(O)c(O)c3)[C@H](O)[C@@H](O)[C@@H]2OC(=O)/C=C/c2ccc(O)c(O)c2)[C@H](O)[C@H](O)[C@H]1O [Forsythoside A]", 420),
    ("COC(=O)C1=CO[C@@H](O[C@@H]2O[C@H](CO)[C@@H](O)[C@H](O)[C@H]2O)[C@@H]2[C@@H](C)[C@@H](O)C[C@H]12 [Loganin]", 108),
]

A = O=c1cc(-c2ccc(O)c(O)c2)oc2cc(O[C@@H]3O[C@H](CO)[C@@H](O)[C@H](O)[C@H]3O)cc(O)c12 [Luteoloside]
B = O=C(/C=C/c1ccc(O)c(O)c1)O[C@H]1[C@H](O)C[C@](O)(C(=O)O)C[C@H]1O [Cryptochlorogenic acid]
Field: entry with larger AUC(0-t) (options A / B ). The response must carry the label of the picked entry.
B

a = O=C(C=Cc1ccc(O)c(O)c1)OC1CC(O)(C(=O)O)CC(O)C1OC(=O)C=Cc1ccc(O)c(O)c1 (centres unmarked) [3,4-dicaffeoylquinic acid]
b = O=c1c(O[C@@H]2O[C@H](CO)[C@@H](O)[C@H](O)[C@H]2O)c(-c2ccc(O)cc2)oc2cc(O)cc(O)c12 [Astragalin]
c = O=c1c(-c2ccc(O)cc2)coc2cc(O[C@@H]3O[C@H](CO)[C@@H](O)[C@H](O)[C@H]3O)cc(O)c12 [Genistin]
Could you please order the items by AUC(0-t), going from the lowest number to the highest? Rank them, then answer with their labels in that order.
c, b, a
(c: 0.548 ng·h/mL, b: 4.17 ng·h/mL, a: 24.4 ng·h/mL)

----------
system: Caco-2 cells; experiment: In vitro Caco-2 monolayer model, apical to basolateral transport (P app); type: in vitro ADME, human; details: Caco-2 monolayer, HBSS pH 6.0, apical to basolateral
endpoint_name: P app in product C group, % compared to that in product A group (%)

A = O=C(O)[C@]1(O)C[C@@H](O)[C@@H](O)[C@H](O)C1
B = O=c1c(O)c(-c2ccc(O)c(O)c2)oc2cc(O)cc(O)c12
Select one: A or B . Criterion: greater recorded P app in product C group, % compared to that in product A group. Respond using the label that marks the chosen record.
A
(A: 301%, B: 125%)

----------
Experiment: Rat in vivo pharmacokinetics study after oral administration of product A, B or C
Design: species or system Male Sprague-Dawley (SD) rats
Conditions: male, Sprague-Dawley, rat, plasma, po, 10 mL·kg^−1, rats, single oral dose 10 mL·kg^−1 of product C (FLJ and FF extracts 1:1), mean±SD
Protocol: Product A (extract mixed with FLJ extract and water, (1∶1, v / v )), product B (extract mixed with FF extract and water, (1∶1, v / v )) and product C (extract mixed with FLJ and FF extracts, (1∶1, v / v )) were given to oral administration to rats, respectively. Male SD rats (∼250 g) were kept in an environmentally controlled breeding room (temperature: 20±2°C, relative humidity: 60±5%) for 1 week. […]
endpoint_name: Cmax (ng/mL)

Consider the following illustrative entries.
# compound, Cmax [ng/mL]
measured = [
    ("O=c1c(-c2ccc(O)cc2)coc2cc(O)cc(O)c12", 2.3),
    ("O=c1c(O)c(-c2ccc(O)c(O)c2)oc2cc(O)cc(O)c12", 8.02),
]

I = COC(=O)C1=CO[C@@H](O[C@@H]2O[C@H](CO)[C@@H](O)[C@H](O)[C@H]2O)[C@@H]2[C@@H](C)[C@@H](O)C[C@H]12
II = COc1cc(C2OCC3C(c4ccc(O[C@@H]5O[C@H](CO)[C@@H](O)[C@H](O)[C@H]5O)c(OC)c4)OCC23)ccc1O (stereo partly drawn) [Pinoresinol-β-D-glucoside]
Which value of Cmax is smaller, the one for I or the one for II ? Label of pick, please.
II

I = O=c1cc(-c2ccc(O)c(O)c2)oc2cc(O[C@@H]3O[C@H](CO)[C@@H](O)[C@H](O)[C@H]3O)cc(O)c12 [Luteoloside]
II = O=c1c(-c2ccc(O)cc2)coc2cc(O[C@@H]3O[C@H](CO)[C@@H](O)[C@H](O)[C@H]3O)cc(O)c12
Lab note: check whether I or II shows the higher recorded Cmax. Label of pick, please.
I
